Origin of the recorded values: patent US20260258115A1

target: RSV postfusion F (postF), F deltaFP (respiratory syncytial virus, UniProt P03420 26-513); assay: BLI, IgG on sensor, 100 nM antigen
measurement-type: pKd
Formally, pKd is defined as -log10 of the concentration c, with c in mol/L.

May I ask what pKd has been recorded for ADI-41350 (antibody, V domains shown, IgG1) VH: EVQLVESGAGLVQPGGSLRLSCAASGFTFSTYAVSWVRQAPGKGLEWVSAISGSGASTYFADSVKGRFTISRDNSKNTLYLQMNSLRAEDTAVYYCAKARLELRPYYYGMDVWGQGTTVTVSS VL: QPVLTQPASVSGSPGQSITISCTGTSSDVGGYNFVSWYQQHPGKAPKLIIYEVSNRPSGVSNRFSGSKSGNTASLTISGLQAEDEADYYCSSSTLSTTYVFGTGTKVTVL ? 9.22

Which pKd reading was recorded for the binder ADI-41400 (antibody, V domains shown, IgG1; also called Ab 693) VH: EVQLLESGGGLIQPGGSLRLSCAASKFTFSDYEMNWVRQAPGKGLEWLSYISSSGGIMYYADSVKGRFTISRDNAKNSLYLQMNSLRAEDTAVYFCARAGRLLSGLDVWGHGTTVTVSS VL: EIVLTQSPSTLSASVGDRVTITCRASQSISPWLAWYQQKPGKAPKLLIYRASSLETGVPPRFSGSGSGTEFTLTISSLQPDDFATYYCQHYNSYLYSFGQGTKVEIK ? 9.26
